# System: H9c2 cells
# protocol: Cytotoxicity in H9c2 cells (CCK-8, 24 h)
# Assay type: cell-based
Items are presented alongside their recorded H9c2 CC^50.
The response must be a number in µM with no trailing unit.

Examples with answers:
{"compound": "CCCCc1cc(OCc2ccc(C(=N)N)cc2)cc(OCc2ccc(C(=N)N)cc2)c1 [drawing 887]", "subject.of.test": "H9c2 cells", "property": "H9c2 CC^50", "readout.units": "µM", "numeric.result": 25}
{"compound": "N=C(N)c1ccc(OCc2cccc(COc3ccc(C(=N)N)cc3F)c2F)c(F)c1 [drawing 854]", "subject.of.test": "H9c2 cells", "property": "H9c2 CC^50", "readout.units": "µM", "numeric.result": 50}
{"compound": "Cn1c(CCc2nc3cc(C(=N)N)ccc3n2C)nc2cc(C(=N)N)ccc21 [drawing 860]", "subject.of.test": "H9c2 cells", "property": "H9c2 CC^50", "readout.units": "µM", "numeric.result": 50}

Problem: Which H9c2 CC^50 is listed for N=C(N)c1ccc(OCc2cccc(COc3ccc(C(=N)N)cc3)c2F)cc1 [drawing 859] ?
Solution: 50

Problem: Fill in the blank: the reported H9c2 CC^50 of N=C(N)c1ccc(COc2cc(OCc3ccc(C(=N)N)cc3)cc(C(F)(F)F)c2)cc1 [drawing 888] is ____.
Solution: 50

* * *

# Tested on: MRSA
# protocol: Sensitization of MRSA to erythromycin (sensitization fold from IC90)
# Type: cell-based, Staphylococcus aureus
# protocol.conditions: compound at 12 μM, NA=no activity
property: SF (MRSA) at 12 μM (fold)
Number only, in fold; omit the unit.

Problem: Give the measured SF (MRSA) at 12 μM of Cc1cc(COc2ccc(C3=NCCCN3)cc2)cc(COc2ccc(C3=NCCCN3)cc2)c1 [drawing 842] .
Solution: 4

Problem: Name the reported SF (MRSA) at 12 μM value associated with the molecule CCCNC(=N)c1ccc(COc2cc(C)cc(OCc3ccc(C(=N)NCCC)cc3)c2)cc1 [drawing 841]
Solution: 8

* * *

In what follows, each item is paired with its MIC for M. smegmatis.

{"compound": "Fc1c(COc2ccc(C3=NCCN3)cc2)cccc1COc1ccc(C2=NCCN2)cc1 [drawing 811]", "MIC": "25 µM"}
{"compound": "CC(C)NC(=N)c1ccc(OCc2cccc(COc3ccc(C(=N)NC(C)C)cc3)c2F)cc1 [drawing 830]", "MIC": "3 µM"}
{"compound": "Cc1cc(COc2ccc(C3=NCCN3)cc2)cc(COc2ccc(C3=NCCN3)cc2)c1 [drawing 826]", "MIC": "25 µM"}
{"compound": "COc1cc(C(=N)N)ccc1OCc1cccc(COc2ccc(C(=N)N)cc2OC)c1F [drawing 817]", "MIC": "6 µM"}
{"compound": "N=C(N)c1ccc(OCc2cc(COc3ccc(C(=N)N)cc3)cc(COc3ccc(C(=N)N)cc3)c2)cc1 [drawing 828]", "MIC": "3 to 6 µM"}

Now take the following compound into account.
Problem: What does the data say about its MIC? Entry: CC(C)NC(=N)c1ccc(OCc2cccc(COc3ccc(C(=N)NC(C)C)cc3F)c2F)c(F)c1 [drawing 831]
Solution: 12 µM

* * *

# Test system: HEK293 cells
# protocol: Cytotoxicity in HEK293 cells (CCK-8, 24 h)
# Format: cell-based
# protocol.conditions: NT=not toxic
Reported values of HEK293 cytotoxicity at 100 μM ("100 μM result in x%") for individual entries
A number alone suffices; assume μM result in 20%.

Consider the worked cases shown below.
{"compound": "COc1cc(C(=N)N)ccc1OCc1cc(COc2ccc(C(=N)N)cc2OC)cc(C(C)(C)C)c1 [drawing 882]", "numeric.result": 100}
{"compound": "Cc1cc(COc2cccc(C(=N)N)c2)cc(COc2cccc(C(=N)N)c2)c1 [drawing 884]", "numeric.result": 100}

Consider now this further compound.
Problem: Short answer please: HEK293 cytotoxicity at 100 μM ("100 μM result in x%"), HEK293 cells, entry Cc1cc(COc2ccc(C(=N)N)cc2)cc(COc2ccc(C(=N)N)cc2)c1 [drawing 863]
Solution: 100

Reference source for all entries: patent US12595251B2
